# ASSAY_INFO: Toxicity liver stage against HepG2, at 10uM
# Format: cell-based
# Design: test concentration 10 uM, cell line HepG2-A16-CD81EGFP
# TEST_CONTEXT: human, HepG2-A16-CD81EGFP cells; read-out: INHIBITION
PARAMETER: cytotoxicity at 10 µM (%)

>>> print(df.to_string())
                                    compound  value_measured
 0  O=C(NCC1CC(=O)N(CCc2ccccc2)C1)c1ccc[nH]1 (configuration not stated)          -0.553
 1    O=C(NCc1cccs1)c1[nH]nc2c1CS(=O)(=O)CC2            1.41
 2  Cc1ccc(N2CC[C@@H](NC(=O)c3cnccn3)[C@H](O)C2)nn1           -6.79
 3   Cc1ccc(-n2c(COCC(=O)O)nc3c(C)cccc32)nc1            2.43
 4     CC(=O)NCCCC(=O)N1CCC(Sc2cccc(C)c2)CC1            2.06
 5  Cc1ccsc1-c1cccc(-c2ccn(CC3CCNC3)n2)c1 (configuration not stated)          -0.288
 6   CCCN(Cc1ccc(S(=O)(=O)NC)cc1)Cc1ccccc1OC           -0.89
 7  N#Cc1ccccc1OCCN1CCCC1Cn1cncn1 (configuration not stated)           -10.7
 8  CCOCC1CN(C)Cc2cnn(CC3CCCC3)c21 (configuration not stated)            -9.7
 9     O=C(CC1CC1)N1CCCn2nnc(CNc3ncccn3)c2C1          -0.802
10  O=C(c1c[nH]nn1)N1CCN(C(c2ccccc2)C(F)(F)F)CC1 (configuration not stated)            8.92
11  NC(=O)C1CCN(C(=O)NC2CCc3cc(F)ccc32)CC1 (configuration not stated)            2.52
12  CN(Cc1ccccc1)CC(O)Cn1cnc2ccccc2c1=O (configuration not stated)           -5.02
13  Cc1cc(NC(=O)c2ccc(N3CCOCC3)c(C)c2)[nH]n1           -35.1
14  O=C1O[C@@H]2CN(c3ncccn3)C[C@@H]2N1CCCc1ccc(F)cc1           -0.74
15   CC(C)N(Cc1ccccc1)C(=O)NCCNC(=O)c1cccnc1           -1.66
16  CC(=O)c1cccc(OCCCC(=O)NCC2CCCN2C)c1 (configuration not stated)            0.71
17  CN(C)C(=O)CN1CCOCC2(CCN(c3ncc(F)cn3)CC2)C1           0.419
18   Cc1cc(NC(=O)COC(=O)c2ccc(F)cc2Br)n(C)n1            6.03
19    NC(=O)CN(C(=O)c1c[nH]c2ncccc12)C1CCCC1           0.441
20  COc1ccc(CN[C@@H]2CO[C@H](CNC(=O)N3CCOCC3)[C@H]2O)cc1           -1.57
21  CNS(=O)(=O)c1ccc(C(=O)NC2CCc3nc(C)cn3C2)o1 (configuration not stated)           -12.3
22  CCc1ccc(C2CCCN2C(=O)CNC(=O)CCC(C)C)o1 (configuration not stated)           -10.2
23  O=C1CC(N(C(=O)c2ccccc2Br)C2CC2)C(=O)N1 (configuration not stated)            10.3
24  Cc1nn(C)c(Cl)c1C1CCCN1C(=O)c1ccc2nncn2c1 (configuration not stated)           -10.2
25  Cc1ccc(CCN2C(=O)CC[C@H]3CN(Cc4cnn(C)c4)CC[C@H]32)o1           -2.19
26  CCn1cnnc1C1CCN(C(=O)Cc2ccc(OC)c(F)c2)CC1           -7.54
27  CCC(=O)N1CCN(c2ccc(C(=O)OC)cc2)CC1C (configuration not stated)           -13.5
28  CNC(=O)CCc1cc(C)nc(C2CCCCN2)n1 (configuration not stated)           -9.83
29    COCCCNC(=O)Nc1ccc(OCc2noc(C3CC3)n2)cc1            7.04
30  Cc1nccn1-c1cc(CNS(=O)(=O)N2CCCC(C)C2)ccn1 (configuration not stated)           -2.42
31  OC(CN1CCN(CC2CCCCC2)CC1)c1ccccc1 (configuration not stated)            1.53
32  O=C(c1cocn1)N1C[C@@H]2COC[C@]2(COc2cccnc2)C1            -107
33  CC(C)c1cc(C(=O)N2CCN(c3ccc(F)c(Cl)c3)CC2)n(C)n1            19.7
34                CNC(=O)c1ccc(-c2ccccc2)n1C            -1.6
35               CCOc1ccc(CNCCCn2ccnc2)cc1Cl           -9.51
36  Cn1c2c(ccc1=O)CC(NS(C)(=O)=O)CC2 (configuration not stated)            3.99
37  Cc1nc(CNC(=O)NC(C)c2ccc3c(c2)OCCCO3)cs1 (configuration not stated)          -0.535
38  O=C(NC[C@H]1OC[C@@H](NCc2cccs2)[C@@H]1O)N1CCOCC1           -3.53
39  Cc1nccc(-c2cccc(NCC(=O)N3CCNC(=O)C3)c2)n1          -0.797
40  CNc1ncc(CN(C)C(=O)[C@@]23CNC[C@@H]2CN(C(=O)C2CC2)C3)cn1            4.67
41  CCCc1nc(CN2CCCCC2Cn2cncn2)cs1 (configuration not stated)           -5.61
42  CNCC(=O)N1CCCC1c1cncc(Oc2ccc(F)cc2)n1 (configuration not stated)           -6.44
43  CC(Cn1cc(Br)cn1)C(=O)Nc1ccc(C(N)=O)cc1 (configuration not stated)          -0.609
44  O=C([C@H]1C[C@@H]2CCN(c3cccc(F)c3)C[C@H]2O1)N1CCCC1            1.99
45  O=C(c1ccco1)N1CCCC2(CN(Cc3ccoc3)CCO2)C1 (configuration not stated)           -2.59
46  CCOCc1ccccc1NC(=O)NCC(c1cnn(C)c1)N(C)C (configuration not stated)            3.96

###

cytotoxicity at 10 µM: recorded values
# ASSAY_INFO: Toxicity liver stage against HepG2, at 10uM
# Type: cell-based
# Parameters: test concentration 10 uM, cell line HepG2-A16-CD81EGFP
# TEST_CONTEXT: human, HepG2-A16-CD81EGFP cells; read-out: INHIBITION
PARAMETER: cytotoxicity at 10 µM (%)

                                    compound  value_measured
 0       CSc1nc(C)cc(N2CCC(c3ncc[nH]3)CC2)n1           -10.6
 1  CN1C(=O)C[C@@H]2[C@@H]1CCN2S(=O)(=O)Cc1ccccc1           -5.76
 2      CCn1cc(C(=O)NCCN2CCCc3ccccc32)c(C)n1            4.23
 3  CCCc1nc(CN2CCOC(Cn3cncn3)C2)cs1 (stereo not drawn)           -8.44
 4  CN(C)C(=O)CN1CCOCC2(CCN(CC3CCOCC3)CC2)C1            8.55
 5  c1cnnc(N2CCCC(NCc3nc(-c4ccco4)no3)C2)c1 (stereo not drawn)             -20
 6  Cn1ncc2c1C(COCC1CC1)CN(Cc1nccs1)C2 (stereo not drawn)            4.49
 7  Cc1cnc(NC(C)Cc2cnccn2)nc1N(C)C (stereo not drawn)           0.342
 8      Cc1cc(CN(C)C(=O)NC2CCN(C3CC3)CC2)no1            -3.6
 9  O=C(NC1CCNC1)C1(N2CCCCC2)Cc2ccccc2C1 (stereo not drawn)           -5.76
10       CCc1cc(N2CCC(Nc3ccc(Cl)cn3)CC2)ncn1            49.1
11  Cc1nc(N2CCCC2)ncc1-c1cc(O)nc(NCC2CCCO2)n1 (stereo not drawn)           0.723
12           COc1cccc(OCCc2nnc(NC(C)=O)s2)c1            4.84
13           Cc1cc(=O)[nH]c(=O)n1-c1ccccc1Br            7.89
14  Cc1nn(C)c(C)c1C1CCCN1C(=O)c1ccc(NC2CC2)nc1 (stereo not drawn)           -2.85
15  Cc1ncc(CN2CCOCC2)c2cc(C(=O)c3ccc(Br)cc3)oc12            3.54
16           O=C(NCCCNc1cccnc1)c1ccc2nccn2c1           -42.4
17  Cc1noc(-c2ccc(Oc3cccc(CN4CCCC4)c3F)nc2)n1           -6.03
18      O=C(C1CC1)N1CCN(Cc2ccncc2)c2ncccc2C1           -3.88
19     OC[C@H]1CCN(Cc2ccc3ccccc3n2)C[C@@H]1O              -6
20       CCCn1nc2c(cc1=O)CN(CCCN1CCCC1=O)CC2           -6.49
21            CCOc1ccc(NC(=O)Cn2cc(I)cn2)cc1            9.84
22  O=C(Cc1cccnc1)N1CCC2(CC1)CCN(C1CCOCC1)CC2           -8.25
23  CCc1noc(C(C)N2CCN(S(=O)(=O)N3CCCC3)CC2)n1 (stereo not drawn)          -0.252
24  Cc1cc(C2CCCN(Cc3cccnc3)C2)n[nH]1 (stereo not drawn)               9
25  Cc1ccc(CN(C)C(=O)CN2CCCC2c2cnn(C)c2)o1 (stereo not drawn)           -1.69
26  CCCc1nc(N[C@H]2COC[C@@H]2N2CCCC2)c2cnn(C)c2n1           -6.56
27  O=C(CS(=O)(=O)Cc1ccc(Br)cc1F)Nc1cn[nH]c1            -9.2
28  Cc1nn(C)c(C)c1NC(=O)CNc1ccc(F)c(C(F)(F)F)c1          0.0371
29  COc1ncc(-c2cc(NCCN(C)C)nc3[nH]ccc23)c(OC)n1           -20.7
30  CCNC(=O)CN1CCCC(c2ccc(C(=O)O)cc2)C1 (stereo not drawn)            8.57
31  Cc1noc(C(C)Nc2ccc3c(c2)CCC3)n1 (stereo not drawn)            1.84
32   O=C(NC1CCCC1)c1nc(COc2ccc3c(c2)OCO3)no1            2.87
33                Cc1cc(CNCC2(O)CCOCC2)ccc1F            6.71
34  Cc1ccc(N2CCCC(NCc3cc(C)on3)C2)nn1 (stereo not drawn)            -4.8
35          CCOc1cccc(COC(=O)c2ccc(Cl)cn2)n1           -3.44
36    CCN(c1ccc(C(=O)N2CCCC2)cc1)S(=O)(=O)CC           -9.75
37  CCOC(=O)N1CCC(NC(C)c2ccccc2-n2cccn2)CC1 (stereo not drawn)           -7.28
38  CC(C)C(=O)N1CC[C@H]2N(C)CC[C@@]2(C(=O)Nc2cccnc2)CC1            -121
39  CC(=O)N1CCN(C(=O)Nc2ccccc2Cl)[C@H]2CS(=O)(=O)C[C@H]21          -0.166
40    CN(C)c1cnn(CC(=O)N2Cc3ccccc3C2)c(=O)c1            4.52
41  Cc1cc(C)n(-c2cncc(NCCNC(=O)C(C)(C)C)n2)n1            1.36
42  c1ccc(C2CN(c3ncnc4[nH]cnc34)CCO2)cc1 (stereo not drawn)            9.42
43  Nc1ncnc2nc(C3CCN(C(=O)Cc4ccccc4)C3)ccc12 (stereo not drawn)            2.65
44      CN1CCc2c(C#N)c(NCc3ccco3)n3cnnc3c2C1           -13.7
45  CC(=O)Nc1cccc(CN2CCCC2C(=O)Nc2nccs2)c1 (stereo not drawn)            6.12
46               Cc1ccsc1CNC(=O)CSc1nnc[nH]1          -0.655
47         Cc1ccc(C(=O)N2CCSCC2)cc1N1CCNC1=O           -6.33

Numbers sourced from ChEMBL document CHEMBL4513216.
